Molecular target: CAT1 (cationic amino acid transporter 1, CAT1/SLC7A1) (Homo sapiens, UniProt P30825)
Construct: full-length human transporter stably transfected in HEK cells (HEK-CAT1); net uptake against HEK-VC vector control cells
Sequence (P30825 whole entry): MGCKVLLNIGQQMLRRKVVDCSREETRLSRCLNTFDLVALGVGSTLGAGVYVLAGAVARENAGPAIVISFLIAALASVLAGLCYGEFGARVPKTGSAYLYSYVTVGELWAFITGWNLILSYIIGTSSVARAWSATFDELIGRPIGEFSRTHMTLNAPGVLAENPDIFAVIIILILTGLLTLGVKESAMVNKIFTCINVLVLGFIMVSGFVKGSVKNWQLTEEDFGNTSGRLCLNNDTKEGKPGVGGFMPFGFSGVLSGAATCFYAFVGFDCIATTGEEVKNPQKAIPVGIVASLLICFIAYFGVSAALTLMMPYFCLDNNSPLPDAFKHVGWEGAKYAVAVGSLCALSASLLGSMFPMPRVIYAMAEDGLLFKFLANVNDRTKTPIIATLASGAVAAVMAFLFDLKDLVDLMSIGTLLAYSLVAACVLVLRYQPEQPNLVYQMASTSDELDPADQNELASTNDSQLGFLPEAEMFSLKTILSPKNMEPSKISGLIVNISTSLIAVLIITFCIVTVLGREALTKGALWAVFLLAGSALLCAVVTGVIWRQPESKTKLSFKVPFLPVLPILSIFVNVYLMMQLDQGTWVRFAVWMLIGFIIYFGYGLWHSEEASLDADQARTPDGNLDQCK
Experiment: cell-based
Parameters: species or system HEK-CAT1 (HEK293 stably transfected); Inhibition of net CAT1-mediated [3H]-L-arginine (100 uM) uptake, 5 min, scintillation counting, vector control subtracted
Conditions: HEK293; L-arginine 100 uM as substrate; read-out: % Inhibition of L-arginine uptake at 200 µM
Protocol: Uptake and inhibition assays using HEK-CAT1 and HEK-VC cells and L-arginine, L-homoarginine, and ADMA as substrates were performed using the protocol described (Strobel et al. [2012]; Chafai et al. [2017]). […] The net uptake was determined by subtracting the total amount taken up by control cells from the amount taken up by CAT1-expressing cells, which was expressed as a percentage of the amount taken up by the control. […]
RECORDED METRIC: inhibition at 200 µM (%)
Value expressed in %; do not type the unit.

Write down the reported inhibition at 200 µM (system: CAT1 (cationic amino acid transporter 1, CAT1/SLC7A1) (Homo sapiens, UniProt P30825)) of C=CC[C@@H]1/C=C(\C)C[C@H](C)C[C@H](OC)[C@H]2O[C@@](O)(C(=O)C(=O)N3CCCC[C@H]3C(=O)O[C@H](/C(C)=C/[C@@H]3CC[C@@H](O)[C@H](OC)C3)[C@H](C)[C@@H](O)CC1=O)[C@H](C)C[C@@H]2OC
69.6

Write down the reported inhibition at 200 µM (system: CAT1 (cationic amino acid transporter 1, CAT1/SLC7A1) (Homo sapiens, UniProt P30825)) of CCOC(=O)[C@H](CCc1ccccc1)N[C@@H](C)C(=O)N1CCC[C@H]1C(=O)O
-1.5

Write down the reported inhibition at 200 µM (system: CAT1 (cationic amino acid transporter 1, CAT1/SLC7A1) (Homo sapiens, UniProt P30825)) of CCOC(=O)[C@H](CCc1ccccc1)N[C@@H](C)C(=O)N1[C@H](C(=O)O)C[C@@H]2CCC[C@@H]21
-5.8

Write down the reported inhibition at 200 µM (system: CAT1 (cationic amino acid transporter 1, CAT1/SLC7A1) (Homo sapiens, UniProt P30825)) of CC[C@H](C)C(=O)O[C@H]1C[C@H](O)C=C2C=C[C@H](C)[C@H](CC[C@@H](O)C[C@@H](O)CC(=O)O)[C@H]21
4.1

Write down the reported inhibition at 200 µM (system: CAT1 (cationic amino acid transporter 1, CAT1/SLC7A1) (Homo sapiens, UniProt P30825)) of C[C@]12CCC(=O)C=C1CC[C@@H]1[C@@H]2[C@@H](O)C[C@@]2(C)[C@H]1CC[C@]2(O)C(=O)CO [Hydrocortisone]
-4.3

Write down the reported inhibition at 200 µM (system: CAT1 (cationic amino acid transporter 1, CAT1/SLC7A1) (Homo sapiens, UniProt P30825)) of CCCCc1nc(Cl)c(CO)n1Cc1ccc(-c2ccccc2-c2nnn[nH]2)cc1
-34.8

Write down the reported inhibition at 200 µM (system: CAT1 (cationic amino acid transporter 1, CAT1/SLC7A1) (Homo sapiens, UniProt P30825)) of CNCCC(Oc1ccc(C(F)(F)F)cc1)c1ccccc1 (stereo not drawn)
26

Write down the reported inhibition at 200 µM (system: CAT1 (cationic amino acid transporter 1, CAT1/SLC7A1) (Homo sapiens, UniProt P30825)) of CC#C[C@]1(O)CC[C@H]2[C@@H]3CCC4=CC(=O)CCC4=C3[C@@H](c3ccc(N(C)C)cc3)C[C@@]21C
-19.9

Write down the reported inhibition at 200 µM (system: CAT1 (cationic amino acid transporter 1, CAT1/SLC7A1) (Homo sapiens, UniProt P30825)) of CC(=O)Nc1ccc(O)cc1
2.4

Write down the reported inhibition at 200 µM (system: CAT1 (cationic amino acid transporter 1, CAT1/SLC7A1) (Homo sapiens, UniProt P30825)) of CC(C)Cc1ccc(C(C)C(=O)O)cc1 (stereo not drawn)
-33.7

Write down the reported inhibition at 200 µM (system: CAT1 (cationic amino acid transporter 1, CAT1/SLC7A1) (Homo sapiens, UniProt P30825)) of Nc1nc(NC2CC2)c2ncn([C@H]3C=C[C@@H](CO)C3)c2n1
-12.4

Write down the reported inhibition at 200 µM (system: CAT1 (cationic amino acid transporter 1, CAT1/SLC7A1) (Homo sapiens, UniProt P30825)) of C[C@@H](O)[C@H]1C(=O)N2C(C(=O)O)=C(S[C@@H]3CN[C@H](C(=O)N(C)C)C3)[C@H](C)[C@H]12
-13.4

Write down the reported inhibition at 200 µM (system: CAT1 (cationic amino acid transporter 1, CAT1/SLC7A1) (Homo sapiens, UniProt P30825)) of CCCC1O[C@@H]2C[C@H]3[C@@H]4CCC5=CC(=O)C=C[C@]5(C)[C@H]4[C@@H](O)C[C@]3(C)[C@]2(C(=O)CO)O1 (stereo partly drawn) [Budesonide]
-6.4

Write down the reported inhibition at 200 µM (system: CAT1 (cationic amino acid transporter 1, CAT1/SLC7A1) (Homo sapiens, UniProt P30825)) of CCOC(=O)[C@H](CCc1ccccc1)N[C@H]1CCc2ccccc2N(CC(=O)O)C1=O
2.7

Write down the reported inhibition at 200 µM (system: CAT1 (cationic amino acid transporter 1, CAT1/SLC7A1) (Homo sapiens, UniProt P30825)) of COc1ccc([C@@H]2Sc3ccccc3N(CCN(C)C)C(=O)[C@@H]2OC(C)=O)cc1
29.3

Write down the reported inhibition at 200 µM (system: CAT1 (cationic amino acid transporter 1, CAT1/SLC7A1) (Homo sapiens, UniProt P30825)) of Cc1nccn1CC1CCc2c(c3ccccc3n2C)C1=O (stereo not drawn)
-5.7

Write down the reported inhibition at 200 µM (system: CAT1 (cationic amino acid transporter 1, CAT1/SLC7A1) (Homo sapiens, UniProt P30825)) of C#C[C@]1(O)CC[C@H]2[C@@H]3CCC4=CC(=O)CC[C@@H]4[C@H]3CC[C@@]21C
-19.7

Write down the reported inhibition at 200 µM (system: CAT1 (cationic amino acid transporter 1, CAT1/SLC7A1) (Homo sapiens, UniProt P30825)) of COC(=O)[C@H](c1ccccc1Cl)N1CCc2sccc2C1
1.5

Write down the reported inhibition at 200 µM (system: CAT1 (cationic amino acid transporter 1, CAT1/SLC7A1) (Homo sapiens, UniProt P30825)) of C[C@@H]1CCC[C@H](C)N1NC(=O)c1ccc(Cl)c(S(N)(=O)=O)c1 [Clopamide]
23.4

Write down the reported inhibition at 200 µM (system: CAT1 (cationic amino acid transporter 1, CAT1/SLC7A1) (Homo sapiens, UniProt P30825)) of CCCc1nc(C(C)(C)O)c(C(=O)O)n1Cc1ccc(-c2ccccc2-c2nnn[nH]2)cc1
-32.8

Write down the reported inhibition at 200 µM (system: CAT1 (cationic amino acid transporter 1, CAT1/SLC7A1) (Homo sapiens, UniProt P30825)) of COc1ccc(Cl)cc1C(=O)NCCc1ccc(S(=O)(=O)NC(=O)NC2CCCCC2)cc1 [Glibenclamide]
14

Write down the reported inhibition at 200 µM (system: CAT1 (cationic amino acid transporter 1, CAT1/SLC7A1) (Homo sapiens, UniProt P30825)) of C[C@]12CC[C@@H]3c4ccc(O)cc4CC[C@H]3[C@@H]1CC[C@@H]2O
-19.1

Write down the reported inhibition at 200 µM (system: CAT1 (cationic amino acid transporter 1, CAT1/SLC7A1) (Homo sapiens, UniProt P30825)) of CCOC(=O)C1=C(C)NC(C)=C(C(=O)OC)C1c1cccc([N+](=O)[O-])c1 (stereo not drawn)
26.1

Write down the reported inhibition at 200 µM (system: CAT1 (cationic amino acid transporter 1, CAT1/SLC7A1) (Homo sapiens, UniProt P30825)) of C[C@@H](O)[C@H]1C(=O)N2C(C(=O)O)=C(S[C@@H]3CN[C@H](C(=O)Nc4cccc(C(=O)O)c4)C3)[C@H](C)[C@H]12
-15.8

Write down the reported inhibition at 200 µM (system: CAT1 (cationic amino acid transporter 1, CAT1/SLC7A1) (Homo sapiens, UniProt P30825)) of CC(CN(C)C)CN1c2ccccc2CCc2ccccc21 (stereo not drawn)
24.2

Write down the reported inhibition at 200 µM (system: CAT1 (cationic amino acid transporter 1, CAT1/SLC7A1) (Homo sapiens, UniProt P30825)) of C[C@H]1O[C@@H](O[C@H]2[C@@H](O)C[C@H](O[C@H]3[C@@H](O)C[C@H](O[C@H]4CC[C@@]5(C)[C@H](CC[C@@H]6[C@@H]5CC[C@]5(C)[C@@H](C7=CC(=O)OC7)CC[C@]65O)C4)O[C@@H]3C)O[C@@H]2C)C[C@H](O)[C@@H]1O
-14.1

Write down the reported inhibition at 200 µM (system: CAT1 (cationic amino acid transporter 1, CAT1/SLC7A1) (Homo sapiens, UniProt P30825)) of N=C(N)NC(=O)c1nc(Cl)c(N)nc1N [Amiloride]
10.9

Write down the reported inhibition at 200 µM (system: CAT1 (cationic amino acid transporter 1, CAT1/SLC7A1) (Homo sapiens, UniProt P30825)) of C[C@]12C=CC(=O)C=C1CC[C@@H]1[C@@H]2[C@@H](O)C[C@@]2(C)[C@H]1CC[C@]2(O)C(=O)CO
-21.4

Write down the reported inhibition at 200 µM (system: CAT1 (cationic amino acid transporter 1, CAT1/SLC7A1) (Homo sapiens, UniProt P30825)) of Clc1ccccc1CN1CCc2sccc2C1
31.7

Write down the reported inhibition at 200 µM (system: CAT1 (cationic amino acid transporter 1, CAT1/SLC7A1) (Homo sapiens, UniProt P30825)) of CC(=O)N[C@@H](CS)C(=O)O
4.6
